molecular target: Phosphodiesterase 4 (Homo sapiens, UniProt P27815+Q08499+Q07343+Q08493); test: Inhibition of PDE4 in the cytosol of human neutrophils; format: protein assay
Consider the following compounds and their measured Log IC50 readings.

Given smiles	Log IC50
COc1ccc(-c2nn(-c3ccccc3)c(=O)c3ccccc23)cc1OC	-5.8
COc1ccc(C2=NN(c3ccccc3)C(=O)[C@@H]3CCCC[C@@H]23)cc1OC	-5.1
COc1ccc(C2=NN(Cc3ccccc3)C(=O)[C@@H]3CCCC[C@H]23)cc1OC	-8.1
COc1ccc(-c2nnc(O)c3c2CCCC3)cc1OC	-5.2

###

biological target: Phosphodiesterase 4 (Homo sapiens, UniProt P27815+Q08499+Q07343+Q08493); experiment: Inhibition of PDE4 in the cytosol of human neutrophils; assay type: protein assay
Consider the following molecules and their measured Log IC50 readings.
Property name: Log IC50

Molecule	Property name	Result
COc1ccc(C2=NN(c3ccccc3)C(=O)[C@@H]3CCCC[C@H]23)cc1OC	Log IC50	-7.6
COc1ccc(C2=NN(Cc3ccccc3)C(=O)[C@@H]3CC=CC[C@H]23)cc1OC	Log IC50	-8.4
COc1ccc(C2=NNC(=O)[C@@H]3CCCC[C@H]23)cc1OC (relative stereo)	Log IC50	-6.4
COc1ccc(C2=NNC(=O)CC2C)cc1OC (stereo unspecified)	Log IC50	-6.5
COc1ccc(-c2nn(Cc3ccccc3)c(=O)c3c2CCCC3)cc1OC	Log IC50	-5.8
COc1ccc(-c2nn(Cc3ccccc3)c(=O)c3ccccc23)cc1OC	Log IC50	-6.5
COc1ccc(C2=NNC(=O)CC2)cc1OC	Log IC50	-5.9
COc1ccc(C2=NNC(=O)[C@@H]3CC=CC[C@H]23)cc1OC (relative stereo)	Log IC50	-7
COc1ccc(C2=NN(c3ccccc3)C(=O)CC2C)cc1OC (stereo unspecified)	Log IC50	-6.8
COc1ccc(C2=NN(c3ccccc3)C(=O)[C@@H]3CC=CC[C@@H]23)cc1OC	Log IC50	-6.1
COc1ccc(C2=NN(Cc3ccccc3)C(=O)CC2)cc1OC	Log IC50	-7.1
O=c1c2cccnc2c(-c2cccc([N+](=O)[O-])c2)nn1Cc1ccncc1 [PYRIDOPYRIDAZINONE]	Log IC50	-8.3
COc1ccc(-c2nnc(O)c3ccccc23)cc1OC	Log IC50	-5.8
COc1ccc(C2=NNC(=O)C(C)C2C)cc1OC (stereo in doubt; 3e)	Log IC50	-6.2
COc1ccc(C2=NNC(=O)[C@@H]3CCCC[C@@H]23)cc1OC	Log IC50	-5.3
COc1ccc(C2=NN(c3ccccc3)C(=O)CC2)cc1OC	Log IC50	-6.4
COc1ccc(C2=NNC(=O)C(C)C2C)cc1OC (stereo in doubt; 3d)	Log IC50	-6.7
COc1ccc(-c2nn(-c3ccccc3)c(=O)c3c2CCCC3)cc1OC	Log IC50	-5.3
COc1ccc(C2=NN(c3ccccc3)C(=O)C(C)C2)cc1OC (stereo unspecified)	Log IC50	-6.9
COc1ccc(C2=NN(c3ccccc3)C(=O)C(C)C2C)cc1OC (stereo unspecified)	Log IC50	-7.3
COc1ccc(C2=NN(c3ccccc3)C(=O)[C@@H]3CC=CC[C@H]23)cc1OC	Log IC50	-7.9
